target: human 17β-HSD 4 (Homo sapiens); construct: For 17β-HSD 4 only the SDR-domain converting the steroids was subcloned; made in house; host or cells: E.coli BL21 DE3 Codon Plus RP; experiment: In vitro enzymatic activity, recombinant human 17β-HSD 4 SDR-domain (estradiol oxidation); type: biochemical; conditions: 2 µM compound, 21 nM 3H-estradiol, NAD+, pH 7.7
Sequence (P51659 1-305 limits assumed): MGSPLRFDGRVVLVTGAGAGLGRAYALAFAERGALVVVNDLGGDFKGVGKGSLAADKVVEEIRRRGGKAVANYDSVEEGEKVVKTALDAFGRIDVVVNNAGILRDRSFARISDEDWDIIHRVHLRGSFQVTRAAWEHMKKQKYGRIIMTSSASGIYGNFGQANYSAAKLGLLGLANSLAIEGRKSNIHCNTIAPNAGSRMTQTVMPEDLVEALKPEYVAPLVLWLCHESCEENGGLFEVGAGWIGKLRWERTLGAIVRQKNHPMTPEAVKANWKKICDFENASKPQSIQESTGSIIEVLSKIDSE
Answer each item with its documented Observed % inhibition.
All answers are understood in %, so give the number only.

What value of Observed % inhibition has been recorded for this entry: "Cc1cnc(NC(=O)CC[C@@H]2CC(=O)[C@@]3(C)CC[C@@H]4c5ccc(O)cc5CC[C@H]4[C@H]23)s1"
2.1

Same question, C[C@]12CC[C@@H]3c4ccc(O)cc4CC[C@H]3[C@@H]1C[C@H](CC(=O)NCc1cccnc1)C2=O [Compound 5, reference compound] this time
5.6

What do you get for "C[C@]12CC[C@@H]3c4ccc(O)cc4CC[C@H]3[C@@H]1[C@@H](CNC(=O)c1ccc(F)cc1)CC2=O" ?
7.2

Another compound to look at: "COc1ccc(-c2cn(CCC[C@H]3CC(=O)[C@@]4(C)CC[C@@H]5c6ccc(O)cc6CC[C@H]5[C@H]34)nn2)cc1"
5.5

Cool, now "C[C@]12CC[C@@H]3c4ccc(O)cc4CC[C@H]3[C@@H]1[C@@H](CCCC(=O)N1CCOCC1)CC2=O"
0.1
